EXPERIMENTAL ENDPOINT: IC50 (µM)
Numeric answer only, unit µM assumed.

# query: IC50 | item C=CC(=O)N1C/C(=C\c2ccccc2)C(=O)C2(C1)C(c1ccccc1)C(c1ccccc1)NC21C(=O)Nc2ccccc21 (racemic) | system: Acetylcholinesterase (Electrophorus electricus) 4.57

Record O=C(C1CC(c2ccccc2)NC12C(=O)Nc1ccccc12)N1C/C(=C\c2cccc([N+](=O)[O-])c2)C(=O)C2(C1)C(c1cccc([N+](=O)[O-])c1)C(c1ccccc1)NC21C(=O)Nc2ccccc21 (racemic) : what is its IC50 with Acetylcholinesterase (Electrophorus electricus)? 16.8

What IC50 appears in the records for this compound with Acetylcholinesterase (Electrophorus electricus)? O=C(C1CC(c2ccccc2)NC12C(=O)Nc1ccccc12)N1C/C(=C\c2ccccc2)C(=O)C2(C1)C(c1ccccc1)C(c1ccccc1)NC21C(=O)Nc2ccccc21 (racemic) 20.8

Give Acetylcholinesterase (Electrophorus electricus) IC50 for COc1ccccc1/C=C1\CN(C(=O)C2CC(c3ccccc3)NC23C(=O)Nc2ccccc23)CC2(C1=O)C(c1ccccc1OC)C(c1ccccc1)NC21C(=O)Nc2ccccc21 (racemic) 9.15

Form field - read-out: IC50; system: Acetylcholinesterase (Electrophorus electricus); submitted item: C=CC(=O)N1C/C(=C\c2ccc(Cl)cc2Cl)C(=O)C2(C1)C(c1ccc(Cl)cc1Cl)C(c1ccccc1)NC21C(=O)Nc2ccccc21 (racemic) 6.16

Write down the reported IC50 of C=CC(=O)N1C/C(=C\c2ccccc2OC)C(=O)C2(C1)C(c1ccccc1OC)C(c1ccccc1)NC21C(=O)Nc2ccccc21 (racemic) , test system: Acetylcholinesterase (Electrophorus electricus). 5.57

These data points were gathered from ChEMBL document CHEMBL3232846.
